# Test system: Fibroblast
# protocol: Multiplex assay against human fibroblast
# Format: toxicity, cell-based
# assay.setup: 12 h, 1 µM, compound concentration 1 uM, replicate 1
measured.quantity: Population Membrane Permeable-Phenotype (%)

• CC(C)[C@H](CO)Nc1nc(Nc2cccc(Cl)c2)c2ncn(C(C)C)c2n1 = 20
• Cc1ccc(NC(=O)Nc2cc(C(F)(F)F)ccc2F)cc1Nc1ccc2c(c1)NC(=O)/C2=C\c1ccc[nH]1 = 58
• N#CCNC(=O)c1ccc(-c2ccnc(Nc3ccc(N4CCOCC4)cc3)n2)cc1 = 30
• Cc1c(P(=S)(c2ccccc2)c2ccccc2)n2ccccc2[n+]1C/C=C/c1ccccc1.[Br-] = 7
• CCCCCNC(=N)N/N=C/c1c[nH]c2ccc(OC)cc12.O=C(O)/C=C\C(=O)O [TEGASEROD MALEATE] = 10
• C=CC(=O)Nc1cc(-n2c(=O)ccc3cnc4ccc(-c5ccc(NS(C)(=O)=O)cc5)cc4c32)ccc1C = 15
• CN(c1cc(C(F)(F)F)nc(OCCC(=O)O)n1)c1cccc2c1CCC2 = 17
• C[C@@H](Oc1cc(-n2cnc3ccc(CN4CCN(C)CC4)cc32)sc1C(N)=O)c1ccccc1C(F)(F)F = 34
• CC(Cc1ccc(O)c(O)c1)C(C)Cc1ccc(O)c(O)c1 (centres undefined) [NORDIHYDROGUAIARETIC ACID] = 19
• Cl.Cn1c2c(c3ccc(Cl)c(Cl)c31)C(C#N)C1(CCNCC1)NC2=O (centres undefined) = 8
• CC(C)c1cc(Nc2nc(N3CCC[C@H](N)C3)ncc2C(N)=O)cc(C(C)C)n1 = 22
• CCOc1ccn(-c2ccc(F)cc2)c(=O)c1C(=O)Nc1ccc(Oc2ccnc(N)c2Cl)c(F)c1 = 10
• Cc1c(Nc2ccc(S(=O)(=O)N3CCN(C)CC3)cc2F)nc2ccc(Nc3cnn(C4CC4)c3)cn2c1=O = 31
• CC[C@@H]1C(=O)N(C)c2cnc(Nc3ccc(C(=O)NC4CCN(C)CC4)cc3OC)nc2N1C1CCCC1 = 6

----------
Collected Population Apoptotic (%) values appear next to each entry.
# System: Fibroblast
# protocol: Multiplex assay against human fibroblast
# Type: toxicity, cell-based
# assay.setup: 48 h, 10 µM, compound concentration 10 uM, replicate 2
measured.quantity: Population Apoptotic (%)

* Cc1c(P(=S)(c2ccccc2)c2ccccc2)n2ccccc2[n+]1C/C=C/c1ccccc1.[Br-] | 84
* N#CCNC(=O)c1ccc(-c2ccnc(Nc3ccc(N4CCOCC4)cc3)n2)cc1 | 50
* N#Cc1cccc(C(=O)Nc2cc(-c3ccccc3)nn2-c2ccccc2)c1 | 23
* CCCc1cc(C)[nH]c(=O)c1CNC(=O)c1cc(-c2ccc(N3CCN(C(C)C)CC3)nc2)cc2c1cnn2C(C)C | 48
* CCCCN(CC)c1nc(C)nc2c1c(C)cn2-c1c(C)cc(C)cc1C.Cl | 66
* C=CC(=O)Nc1cc(-n2c(=O)ccc3cnc4ccc(-c5ccc(NS(C)(=O)=O)cc5)cc4c32)ccc1C | 100
* C[C@@H](Oc1cc(-n2cnc3ccc(CN4CCN(C)CC4)cc32)sc1C(N)=O)c1ccccc1C(F)(F)F | 75
* CN1CCN(Cc2ccc(-c3cnc4[nH]cc(-c5ccc6[nH]ccc6c5)c4c3)cc2)CC1 | 100
* Cl.NC[C@@H]1O[C@H](C23CC4CC(CC(C4)C2)C3)Cc2c1ccc(O)c2O | 100
* CC(/C=C1\SC(=S)N(CCCC(=O)Nc2ccc(C(=O)O)c(O)c2)C1=O)=C\c1ccccc1 | 33
* CC(C)c1cc(Nc2nc(N3CCC[C@H](N)C3)ncc2C(N)=O)cc(C(C)C)n1 | 80
* Cc1c(Nc2ccc(S(=O)(=O)N3CCN(C)CC3)cc2F)nc2ccc(-c3cnn(C4CC4)c3)cn2c1=O | 60
* CCCCCNC(=N)N/N=C/c1c[nH]c2ccc(OC)cc12.O=C(O)/C=C\C(=O)O [TEGASEROD MALEATE] | 85

----------
# System: HEK-293T
# protocol: Multiplex assay against HEK293T
# Type: toxicity, cell-based
# assay.setup: human, 24 h, 10 µM, compound concentration 10 uM, replicate 2
measured.quantity: Population Normal (%)

* CC(Cc1ccc(O)c(O)c1)C(C)Cc1ccc(O)c(O)c1 (stereo unspecified) [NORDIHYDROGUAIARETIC ACID] | 96%
* CCCCCNC(=N)N/N=C/c1c[nH]c2ccc(OC)cc12.O=C(O)/C=C\C(=O)O [TEGASEROD MALEATE] | 86%
* CN1C(=O)[C@@H](NC(=O)c2cc3ccccc3[nH]2)N=C(c2ccccc2)c2ccccc21 [DEVAZEPIDE] | 95%
* CC(C)[C@H](CO)Nc1nc(Nc2cccc(Cl)c2)c2ncn(C(C)C)c2n1 | 90%
* Cc1c(P(=S)(c2ccccc2)c2ccccc2)n2ccccc2[n+]1C/C=C/c1ccccc1.[Br-] | 86%
* Cl.NC[C@@H]1O[C@H](C23CC4CC(CC(C4)C2)C3)Cc2c1ccc(O)c2O | 84%
* CC(/C=C1\SC(=S)N(CCCC(=O)Nc2ccc(C(=O)O)c(O)c2)C1=O)=C\c1ccccc1 | 98%
* COc1ccccc1-c1cc(Nc2cccc(CS(N)(=O)=O)c2)ncn1 | 96%
* Cc1ccc(NC(=O)Nc2cc(C(F)(F)F)ccc2F)cc1Nc1ccc2c(c1)NC(=O)/C2=C\c1ccc[nH]1 | 96%
* Oc1cccc(-c2nc(N3CCOCC3)c3oc4ncccc4c3n2)c1 | 83%
* CC[C@H](Nc1ncnc2[nH]cnc12)c1nc2cccc(F)c2c(=O)n1-c1ccccc1 | 96%
* CCOc1ccn(-c2ccc(F)cc2)c(=O)c1C(=O)Nc1ccc(Oc2ccnc(N)c2Cl)c(F)c1 | 97%
* CC[C@@H]1C(=O)N(C)c2cnc(Nc3ccc(C(=O)NC4CCN(C)CC4)cc3OC)nc2N1C1CCCC1 | 96%
* Cl.Cn1c2c(c3ccc(Cl)c(Cl)c31)C(C#N)C1(CCNCC1)NC2=O (stereo unspecified) | 91%
* COc1cc(C)c(Sc2cnc(NC(=O)c3ccc(CNC(C)C(C)(C)C)cc3)s2)cc1C(=O)N1CCN(C(C)=O)CC1 (stereo unspecified) | 96%
* CC[C@@]1(O)C(=O)OCc2c1cc1n(c2=O)Cc2cc3ccccc3nc2-1 | 95%
* Cc1c(Nc2ccc(S(=O)(=O)N3CCN(C)CC3)cc2F)nc2ccc(Nc3cnn(C4CC4)c3)cn2c1=O | 96%
* C=CC(=O)Nc1cc(-n2c(=O)ccc3cnc4ccc(-c5ccc(NS(C)(=O)=O)cc5)cc4c32)ccc1C | 97%
* N#CCNC(=O)c1ccc(-c2ccnc(Nc3ccc(N4CCOCC4)cc3)n2)cc1 | 95%
* CN(c1cc(C(F)(F)F)nc(OCCC(=O)O)n1)c1cccc2c1CCC2 | 96%
* CCCc1cc(C)[nH]c(=O)c1CNC(=O)c1cc(-c2ccc(N3CCN(C(C)C)CC3)nc2)cc2c1cnn2C(C)C | 85%
* CC(C)c1cc(Nc2nc(N3CCC[C@H](N)C3)ncc2C(N)=O)cc(C(C)C)n1 | 91%
* CCCCN(CC)c1nc(C)nc2c1c(C)cn2-c1c(C)cc(C)cc1C.Cl | 93%
* c1ccc(-c2oc3ncnc(NC[C@@H]4CCCO4)c3c2-c2ccccc2)cc1 | 95%
* N#Cc1cccc(C(=O)Nc2cc(-c3ccccc3)nn2-c2ccccc2)c1 | 95%
* Cc1ccc(S(=O)(=O)NC2c3ccccc3Oc3ccccc32)cc1 | 96%

----------
# Tested on: HEK-293T
# protocol: Incucyte cell viability with HEK293T; note: filed as whole numbers so only -1 and 0 and 1 occur
# Format: toxicity, cell-based
# assay.setup: human, 24 h, 10 µM, compound concentration 10 uM, replicate number 1, timepoint 24 hours
measured.quantity: Growth Rate

- COc1cc(OC)c(NC(=O)c2ccc(Cc3cc4c(cc3C)C(C)(C)CCC4(C)C)o2)c(OC)c1: 0
- COc1ccccc1-c1cc(Nc2cccc(CS(N)(=O)=O)c2)ncn1: 0
- O=C(O)[C@H]1[C@H](Cn2nnc3ccccc3c2=O)CC[C@@H]1C(=O)c1ccc(OCCC2CCOCC2)cc1 [BAY-7598]: 1
- O=C(NNS(=O)(=O)c1ccccc1)c1cc(-c2ccnnc2)ccc1F [WM-2474]: 0
- CCN(CCO)CCCOc1ccc2c(Nc3cc(CC(=O)Nc4cccc(F)c4)[nH]n3)ncnc2c1 [DEFOSBARASERTIB]: 1

----------
# System: HEK-293T
# protocol: Multiplex assay against HEK293T
# Format: toxicity, cell-based
# assay.setup: human, 48 h, 1 µM, compound concentration 1 uM, replicate 2
measured.quantity: Population Fragmented Nuclei (%)

- CN1C(=O)[C@@H](NC(=O)c2cc3ccccc3[nH]2)N=C(c2ccccc2)c2ccccc21 [DEVAZEPIDE]: 5
- CN(c1cc(C(F)(F)F)nc(OCCC(=O)O)n1)c1cccc2c1CCC2: 7
- Cc1ccc(S(=O)(=O)NC2c3ccccc3Oc3ccccc32)cc1: 8
- CCCCN(CC)c1nc(C)nc2c1c(C)cn2-c1c(C)cc(C)cc1C.Cl: 7
